study_system: CCKB receptor (Mus musculus, UniProt P56481)
Construct: The cortex was dissected, weighed and homogenised in 40 ml ice-cold buffer; from tissue; host or cells: cerebral cortex membranes of male CD1 mice (Charles River)
Sequence (P56481 1-453): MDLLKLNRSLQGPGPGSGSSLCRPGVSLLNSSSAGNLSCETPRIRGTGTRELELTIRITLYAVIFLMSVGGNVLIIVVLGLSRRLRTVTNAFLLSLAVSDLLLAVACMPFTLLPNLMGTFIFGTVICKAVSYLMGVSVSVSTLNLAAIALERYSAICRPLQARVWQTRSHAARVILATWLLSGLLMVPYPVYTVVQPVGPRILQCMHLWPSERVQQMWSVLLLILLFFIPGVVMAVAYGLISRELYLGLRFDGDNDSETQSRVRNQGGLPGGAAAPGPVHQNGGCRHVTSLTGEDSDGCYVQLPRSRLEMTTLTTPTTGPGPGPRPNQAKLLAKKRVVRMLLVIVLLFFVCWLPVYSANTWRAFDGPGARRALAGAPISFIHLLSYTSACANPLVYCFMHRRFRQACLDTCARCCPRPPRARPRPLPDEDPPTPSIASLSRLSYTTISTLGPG
assay_explanation: radioligand binding assay at the CCKB receptor in mouse cortical membranes ([125I]-CCK8S)
protocol_conditions: 150 min at 21±3°, read-out: CCKB pKi (converted)
Label y when Ki is strictly below 2 µM; at or above that, label n.

Task: Check if Ki falls below 2 µM for C[C@@H](NC(=O)[C@H]1CCCN1C(=O)C1C2CCC(c3ccccc32)C1C(=O)NCC12CC3CC(CC(C3)C1)C2)C(=O)O (stereo partly shown) [Example 47] .
Output: y

Task: Is Ki strictly under 2 µM for the entry COC(=O)[C@H]1CCCN1C(=O)C1C2C=CC(c3ccccc32)C1C(=O)NCC12CC3CC(CC(C3)C1)C2 (stereo partly shown) ?
Output: y

Task: Is it true that Ki reported for O=C(NCC1CCCCC1)[C@@H]1[C@H](C(=O)O)[C@@H]2C=C[C@H]1c1ccccc12 (relative stereo) is less than 2 µM?
Output: n

Task: Below 2 µM on Ki? Entry O=C(O)CNC(=O)[C@H]1CCCN1C(=O)C1C2c3ccccc3C(c3cc4ccccc4cc32)C1C(=O)NCC12CC3CC(CC(C3)C1)C2 (single isomer, unassigned) [Example 38]
Output: y

Task: Given COC(=O)[C@H](C)NC(=O)C1C2C=CC(c3ccccc32)C1C(=O)NCC12CC3CC(CC(C3)C1)C2 (stereo partly shown) [Example 7] , is recorded Ki strictly lower than 2 µM?
Output: y

Task: Field: below-cutoff. Rule: recorded Ki strictly less than 2 µM. Subject: COC(=O)[C@H](C)NC(=O)C1C2CCC(c3ccccc32)C1C(=O)NCC12CC3CC(CC(C3)C1)C2 (stereo partly shown) [Example 23]
Output: y

Task: Regarding CC1=C(C)[C@H]2c3ccccc3[C@@H]1[C@@H](C(=O)O)[C@H]2C(=O)NCC12CC3CC(CC(C3)C1)C2 (relative stereo) , kindly confirm whether its Ki is beneath 2 µM.
Output: y

Task: Would you kindly verify if Ki of O=C(NCC12CC3CC(CC(C3)C1)C2)C1C2C=CC(c3ccccc32)C1C(=O)N[C@H](Cc1c[nH]c2ccccc12)C(=O)O (single isomer, unassigned) [Example 16] is strictly less than 2 µM?
Output: y

Task: Problem: For the compound O=C(O)CNC(=O)[C@@H]1CCCN1C(=O)C1C2CCC(c3ccccc32)C1C(=O)NCC12CC3CC(CC(C3)C1)C2 (stereo partly shown) , is Ki under 2 µM?
Output: n

Task: Confirm or reject: Ki of O=C1CC2c3ccccc3C1C(C(=O)O)C2C(=O)NCC12CC3CC(CC(C3)C1)C2 (mixture of isomers) lies strictly below 2 µM
Output: n

Task: I'd appreciate it if you could check whether C[C@H](NC(=O)[C@H]1CCCN1C(=O)C1C2CCC(c3ccccc32)C1C(=O)NCC12CC3CC(CC(C3)C1)C2)C(=O)O (stereo partly shown) [Example 48] has Ki smaller than 2 µM.
Output: y

Task: Please state whether Ki is below 2 µM for C[C@@H](NC(=O)[C@@H]1CCCN1C(=O)C1C2CCC(c3ccccc32)C1C(=O)NCC12CC3CC(CC(C3)C1)C2)C(=O)O (stereo partly shown) [Example 44]
Output: y

Task: I wonder whether C[C@H](NC(=O)[C@@H]1CCCN1C(=O)C1C2CCC(c3ccccc32)C1C(=O)NCC12CC3CC(CC(C3)C1)C2)C(=O)O (stereo partly shown) [Example 51] has Ki below 2 µM. Can you tell?
Output: n

Task: Is the reported Ki for O=C(NCC12CC3CC(CC(C3)C1)C2)C1C(C(=O)N2CCC[C@@H]2C(=O)O)C2C=CC1C2(c1ccccc1)c1ccccc1 (mixture of isomers) strictly below 2 µM?
Output: y

Task: Find out if reported Ki for O=C(NCC12CC3CC(CC(C3)C1)C2)C1C2C=CC(c3ccccc32)C1C(=O)N1C[C@H](O)C[C@@H]1C(=O)O (stereo partly shown) [Example 29] is less than 2 µM
Output: n

Task: Lab note: confirm whether the reported Ki for this compound is below 2 µM, equality not counting. compound: O=C(O)c1cc(NC(=O)[C@H](Cc2ccccc2)NC(=O)C2C3CCC(c4ccccc43)C2C(=O)NCC23CC4CC(CC(C4)C2)C3)cc(C(=O)O)c1 (stereo partly shown)
Output: y

Task: For O=C(O)C1C2c3ccccc3C(c3cc4ccccc4cc32)C1C(=O)NCC12CC3CC(CC(C3)C1)C2 (racemic) , is the recorded Ki below the cut-off of 2 µM?
Output: y

Task: Decide: Ki of C[C@@H](NC(=O)[C@@H]1CCCN1C(=O)C1C2CCC(c3ccccc32)C1C(=O)NCC12CC3CC(CC(C3)C1)C2)C(=O)O (stereo partly shown) [Example 50] strictly below 2 µM?
Output: n

Task: Hello, I'm reviewing records and need to know if Ki of COC(=O)[C@@H]1CCCN1C(=O)C1C2c3ccccc3C(c3cc4ccccc4cc32)C1C(=O)NCC12CC3CC(CC(C3)C1)C2 (stereo partly shown) is below 2 µM. Could you check?
Output: y

Task: Ki under 2 µM? Item: O=C(O)[C@@H]1[C@H](C(=O)NCC2CCCCC2)[C@H]2C=C[C@@H]1c1ccccc12 (relative stereo)
Output: n

Task: I'd appreciate it if you could check whether O=C(NCC12CC3CC(CC(C3)C1)C2)C1C2c3ccccc3C(c3cc4ccccc4cc32)C1C(=O)N1CCC[C@@H]1C(=O)O (stereo partly shown) has Ki smaller than 2 µM.
Output: y

Task: Regarding O=C(NCC12CC3CC(CC(C3)C1)C2)C1C2C=CC(c3ccccc32)C1C(=O)N1CCC[C@@H]1C(=O)O (stereo partly shown) [Example 9] , kindly confirm whether its Ki is beneath 2 µM.
Output: n

Task: Dear reviewer, please state whether O=C(O)c1cc(NC(=O)[C@H](Cc2ccccc2)NC(=O)C2C3C=CC(c4ccccc43)C2C(=O)NCC23CC4CC(CC(C4)C2)C3)cc(C(=O)O)c1 (stereo partly shown) has Ki strictly beneath 2 µM.
Output: y
